System: HS 578T breast
Assay: NCI-60 one-dose screen, 48 h
Details: 10 µM
This is part of a sample that, as a whole, favours compounds with a hit. Of some 83,000 tested, about 20% had one in any assay. Calls of active or inactive are those of the source. The calls were made as follows: active = growth percent below 10; inactive = the rest.
// one of active, inactive, no free text

# fetch the recorded call for `O=C(Nc1ccc(OCC(=O)c2ccc(Cl)cc2)cc1)Nc1ccc(Cl)c(C(F)(F)F)c1` here inactive

# fetch the recorded call for CC1[C@H]2[C@H](C[C@H]3[C@@H]4CC=C5c6sc(Nc7cccc(Cl)n7)nc6CC[C@]5(C)[C@H]4CC[C@@]32C)O[C@]12CC[C@@H](C)CO2 (some centres not stated) here inactive

# fetch the recorded call for `COc1cc(Nc2nc(O)c(/C=C3\C=Nc4ccccc43)s2)cc(OC)c1OC` here active

# fetch the recorded call for `O=C(c1ccc(F)cc1)C(c1c[nH]c2ccccc12)c1c[nH]c2ccccc12` here inactive

# fetch the recorded call for `O=C1S/C(=C\c2ccc([N+](=O)[O-])cc2)C(=O)N1CCN1CCCCC1` here inactive

# fetch the recorded call for `COc1cccc(C(=O)CSc2nc(-c3ccc(OCc4ccccc4)c(OC)c3)c(C#N)c(=O)[nH]2)c1` here inactive

# fetch the recorded call for `O=C(CSc1nc2ccccc2c(=O)n1-c1ccc(Cl)cc1)Nc1ccc(-c2nc3ccccc3[nH]2)cc1` here active

###

Tested on: MDA-MB-468 breast
Experiment: NCI-60 one-dose screen, 48 h (100 = growth as untreated, 0 = no growth, -100 = all killed)
Conditions: 10 µM unless noted
The panel holds about 83,000 compounds, 20% with a hit somewhere; the sample as a whole holds those more often.
Please provide measured growth for the entries that follow.
// return numeric value only (unit: %, not printed)

Specify measured growth for `O=C(Cn1cc(COc2ncnc3c2cnn3-c2ccccc2)nn1)Nc1ccccn1` . 97.7

Specify measured growth for `CCNCCNc1cc(-c2ccc(C(=O)OC)cc2)c(C#N)c2nc3ccccc3n12` . 31.4

Specify measured growth for `O=C(/C=C\c1ccc(NCc2ccc(C(=O)O)cc2)cc1)CCl` . 76.7

Specify measured growth for `O=c1oc2cc(OS(=O)(=O)c3ccc(F)cc3)ccc2c2c1CCCCC2` . 31.3

Specify measured growth for `CN1CCN(c2ccc(Nc3nc(NCCCNS(=O)(=O)c4cccc(F)c4)c4sccc4n3)cc2)CC1` . -5.96

Specify measured growth for `COc1cc(/C=C/C(=O)/C=C/c2cc3ccc(Cl)cc3n(Cc3ccccc3)c2=O)ccc1O` . -42.8

Specify measured growth for `CC[N+](C)(CC)CCO` . 91.8

Specify measured growth for `CCc1c2c(nc3ccc(OC(=O)NCc4ccc(B5OC(C)(C)C(C)(C)O5)cc4)cc13)-c1cc3c(c(=O)n1C2)COC(=O)[C@]3(O)CC` . -33.9

Specify measured growth for `O=C1C2=C(CCN(Cc3ccccc3)C2)N2CCN=C2N1Cc1ccc(C(F)(F)F)cc1` . 8.96

Specify measured growth for `C=C(c1ccc(C(=O)O)c(F)c1)c1cc2c(cc1C)C(C)(C)CCC2(C)C` . 97.6

Specify measured growth for CC1=NNC(=O)C1CCC(=O)N/N=C(\C)c1ccc2ccccc2c1 (stereo unspecified) . 119

Specify measured growth for `Cc1nn(-c2cccc(Cl)c2)c(C)c1N=Nc1ccc(Br)cc1` . 97.6

Specify measured growth for `COc1cnc2c(c1)C(=O)c1c-2n(CCCCl)c(=O)c2ccncc12` . 34.1

Specify measured growth for `Oc1ccc(CSc2nnc(-c3ccc(Oc4ccccc4)cc3)n2-c2ccccc2)c2cccnc12` . -2

Specify measured growth for `COc1cc(-c2nc3ccc(C)cc3[nH]2)ccc1OCc1nnc(-c2ccccc2Br)o1` . 61.6

Specify measured growth for `Cn1c2ccc(Cl)cc2c2nn(C(=O)c3ccccc3)c(=O)nc21` . 103

Specify measured growth for `Cc1ccc(C(=O)N/N=C/c2cccc(Oc3ccccc3)c2)cn1` . 58.6

Specify measured growth for `CCCCCCCn1cc2c(N[C@H](C)c3ccccc3)ncnc2n1` . 119

Specify measured growth for `COc1cccc(C(=O)NNc2nc(Cl)nc(N3CCN(C(c4ccccc4)c4ccccc4)CC3)n2)c1` . -17.1

Specify measured growth for N#Cc1ccc(O)c(C2=NCC(c3cccc(Oc4ccccc4)c3)O2)c1 (stereo unspecified) . 27

Specify measured growth for `CS(=O)(=O)Nc1cncc(-c2ccc3ncnc(Nc4cncc(Cl)c4)c3c2)c1` . 16.7
